assayTarget: recombinant human GST-SYK (Homo sapiens, UniProt P43405)
Construct: purchased Carna Biosciences 08-176
experiment: Homogeneous Time-Resolved Fluorescence (HTRF) assay for the recombinant human Syk enzyme
Format: biochemical
protocolConditions: GST-hSYK 5 pM, ATP 25 μM, 10-dose titration 10 μM to 0.508 nM; read-out: rhSYK Activity (IC50 rating)
pIC50: −log10 of the molar value.
measurementType: pIC50

Please review the entries below; each comes with its answer.
                                   compound                               assaytarget  measurementtype    assayvalue
0  CCc1cccc(Nc2cc(NC(CC)CN)cnc2C(N)=O)n1 (stereo not shown) [Example 1.97]  recombinant human GST-SYK (Homo sapiens, UniProt P43405)            pIC50        > 8.00
1  NC(=O)c1ncc(N[C@@H]2CCCC[C@@H]2N)cc1Nc1cccc(CN2CCOCC2)n1 [Example 1.60]  recombinant human GST-SYK (Homo sapiens, UniProt P43405)            pIC50  6.00 to 7.00
2  CC(C)c1cccc(Nc2cc(N[C@@H]3CCCC[C@@H]3N)cnc2C(N)=O)n1 [Example 1.54]  recombinant human GST-SYK (Homo sapiens, UniProt P43405)            pIC50        > 8.00
3  Cc1nc(Nc2cc(N[C@@H]3CCCC[C@@H]3N)cnc2C(N)=O)ccc1-n1ccnn1 [Example 1.74]  recombinant human GST-SYK (Homo sapiens, UniProt P43405)            pIC50        > 8.00
4  NC(=O)c1ncc(N[C@@H]2CCCC[C@@H]2N)cc1Nc1cc(Cl)cc(Cl)n1 [Example 1.73]  recombinant human GST-SYK (Homo sapiens, UniProt P43405)            pIC50        > 8.00
5  Cc1cc(C)nc(Nc2cc(N[C@H]3CS(=O)(=O)C[C@@H]3N)cnc2C(N)=O)c1 (relative stereo) [Example 2.6]  recombinant human GST-SYK (Homo sapiens, UniProt P43405)            pIC50  6.00 to 7.00
6  C[C@H](N)CNc1cnc(C(N)=O)c(Nc2cccc(C(F)(F)F)n2)c1 [Example 1.104]  recombinant human GST-SYK (Homo sapiens, UniProt P43405)            pIC50        > 8.00
7  Cc1nc(Nc2cc(N[C@@H]3CCCC[C@@H]3N)cnc2C(N)=O)ccc1C(N)=O [Example 7]  recombinant human GST-SYK (Homo sapiens, UniProt P43405)            pIC50        > 8.00

Read the entry Cc1cc(-c2ccccc2)cc(Nc2cc(N[C@@H]3CCCC[C@@H]3N)cnc2C(N)=O)n1 [Example 4.1] and write its reported pIC50. > 8.00

Read the entry Cc1cc(Nc2cc(N[C@@H]3CCCC[C@@H]3N)cnc2C(N)=O)nc(-c2cnc(C(C)(C)O)s2)c1 [Example 1.114] and write its reported pIC50. > 8.00

Read the entry Cc1nc(Nc2cc(N[C@@H]3CCCC[C@@H]3N)cnc2C(N)=O)ccc1-c1ccc(CO)cc1 [Example 3.7] and write its reported pIC50. > 8.00

Read the entry Cn1ccc(Nc2cc(N[C@@H]3CCCC[C@@H]3N)cnc2C(N)=O)n1 [Example 1.33] and write its reported pIC50. 7.00 to 8.00

Read the entry Cc1cc(-c2cnn(C)c2)cc(Nc2cc(N[C@@H]3CCCC[C@@H]3N)cnc2C(N)=O)n1 [Example 4.3] and write its reported pIC50. > 8.00

Read the entry Cc1cc(C)nc(Nc2cc(NC(C)(C)CN)cnc2C(N)=O)c1 [Example 1.19] and write its reported pIC50. 7.00 to 8.00

Read the entry Cc1cc(O)cc(Nc2cc(N[C@@H]3CCCC[C@@H]3N)cnc2C(N)=O)n1 [Example 11] and write its reported pIC50. 7.00 to 8.00

Read the entry Cn1ccc(Nc2cc(N[C@H]3[C@@H](N)CCCC3(F)F)cnc2C(N)=O)n1 [Example 1.86] and write its reported pIC50. 7.00 to 8.00

Source listed as patent US9216173B2.
